System: Yap1 mRNA
assay procedure: Antisense inhibition of human Yap1 in A-431 cells by cEt gapmers, single dose (Example 4, RTS4814)
Assay type: cell-based
experimental conditions: Table 14; A-431 cells, 5,000 cells per well, free uptake, 2,000 nM, approximately 48 hours; RTS4814; normalized to RIBOGREEN; Yap1 mRNA relative to untreated control; * = targets amplicon region of primer probe set
Strand notation (5' to 3'): a small letter for the sugar, then the base; units joined by * are phosphorothioate-linked, units joined directly phosphodiester-linked; [ ] holds rarer units or linkages, { } end groups; capitals alone tell only the bases. k = constrained ethyl (cEt); [5mC] = 5-methylcytosine; d = 2'-deoxy (DNA)
Classify by measured YAP1 (% UTC): 1.0 if it is equal to or exceeds 20 % UTC, 0.0 if it is smaller.

For orientation, consider the following solved cases.
INSERT INTO measurements (substance, group_label) VALUES
  ('1075520 (k[5mC]*k[5mC]*k[5mC]*d[5mC]*dA*dA*d[5mC]*dA*dA*d[5mC]*dT*dG*d[5mC]*kT*kA*kA; antisense) [Compound 1075520]', 1.0),
  ('1076256 (kT*kT*kA*dT*dT*dT*dA*dG*dG*d[5mC]*d[5mC]*d[5mC]*d[5mC]*kA*kT*kA; antisense) [Compound 1076256]', 0.0),
  ('1076288 (k[5mC]*kT*kT*dA*dT*dT*dT*dA*dG*d[5mC]*dA*dT*dA*kG*kT*kG; antisense) [Compound 1076288]', 0.0),
  ('1076192 (k[5mC]*kT*kA*d[5mC]*dA*dA*d[5mC]*d[5mC]*dT*dG*dG*dA*d[5mC]*kT*kT*kT; antisense) [Compound 1076192]', 1.0),
  ('1074592 (antisense kG*kG*kA*dG*d[5mC]*dA*dA*dG*dT*d[5mC]*dT*dT*dG*kT*kA*kA) [Compound 1074592]', 1.0);

Now let's try a different one.
Query: I'd appreciate it if you could say whether 1074720 (antisense kG*kA*kA*dG*dA*dT*d[5mC]*dT*d[5mC]*d[5mC]*dA*dT*dA*kT*kT*k[5mC]) [Compound 1074720] has YAP1 (% UTC) at least equal to 20 % UTC.
Reply: 1.0

====

System: Yap1 mRNA
assay procedure: Antisense inhibition of human Yap1 in A-431 cells by cEt gapmers, single dose (Example 4, RTS4814)
Format: cell-based
experimental conditions: Table 14; A-431 cells, 5,000 cells per well, free uptake, 2,000 nM, approximately 48 hours; RTS4814; normalized to RIBOGREEN; Yap1 mRNA relative to untreated control; * = targets amplicon region of primer probe set
Strand notation (5' to 3'): a small letter for the sugar, then the base; units joined by * are phosphorothioate-linked, units joined directly phosphodiester-linked; [ ] holds rarer units or linkages, { } end groups; capitals alone tell only the bases. k = constrained ethyl (cEt); [5mC] = 5-methylcytosine; d = 2'-deoxy (DNA)
Classify by measured YAP1 (% UTC): met if it is equal to or exceeds 50 % UTC, not met if it is smaller.

INSERT INTO results (substance, group_label) VALUES
  ('1075264 (antisense kG*kA*kA*dT*dA*dA*dT*dA*dT*dG*d[5mC]*dA*dG*kA*kA*k[5mC]) [Compound 1075264]', 'met');

Query: I'd appreciate it if you could say whether 1074464 (kT*kT*kA*dG*dA*dG*dT*dA*dT*dG*dT*dG*dG*k[5mC]*kA*kA) [Compound 1074464] has YAP1 (% UTC) at least equal to 50 % UTC.
Reply: not met

Query: Another substance to look at: 1074816 (kG*kA*kA*dT*dA*dT*dT*dG*d[5mC]*d[5mC]*dA*d[5mC]*d[5mC]*k[5mC]*kA*k[5mC]; antisense) [Compound 1074816]
Reply: not met

====

assay procedure: Cynomolgus monkey tolerability, hematology (Example 34)
Type: in vivo, cynomolgus monkeys
experimental conditions: cynomolgus monkey, in vivo, sc, 35 mg/kg
List of WBC values.
Your answer is read as µL⁻¹, so omit the unit and give the number.

Examples with their reported WBC follow.
INSERT INTO assay_data (substance, value_observed) VALUES
  ('1198728 (TATTAGAGTATGTGGC; modified gapmer, further chemistry not given here) [compound 1198728]', 10700),
  ('1076453 (GTAATATTGCAATCTG; 3-10-3 cEt gapmer, further chemistry not given here) [compound 1076453]', 10000);

Now consider the entry below.
Query: Which WBC is listed for 1197270 (TTAAAGTGTATGTCAG; cEt gapmer with 2'-OMe nucleoside, phosphorothioate, further chemistry not given here) [compound 1197270] ?
Reply: 10600

====

Tested on: Yap1 mRNA
assay procedure: Antisense inhibition of human Yap1 in A-431 cells by cEt gapmers, single dose (Example 2, RTS4814)
Type: cell-based
experimental conditions: Table 25; Yap1 mRNA as percent of untreated control; 3-10-3 cEt gapmers targeting SEQ ID NO.: 1, and 2
Strand notation (5' to 3'): a small letter for the sugar, then the base; units joined by * are phosphorothioate-linked, units joined directly phosphodiester-linked; [ ] holds rarer units or linkages, { } end groups; capitals alone tell only the bases. k = constrained ethyl (cEt); [5mC] = 5-methylcytosine; d = 2'-deoxy (DNA)
List of YAP1 (% UTC) values.
Your answer is read as % UTC, so omit the unit and give the number.

Examples with their reported YAP1 (% UTC) follow.
INSERT INTO results (substance, readout, endpoint_unit, value_observed) VALUES
  ('1074699 (antisense k[5mC]*kT*kA*dT*d[5mC]*dA*dA*dG*dG*dT*d[5mC]*d[5mC]*d[5mC]*k[5mC]*k[5mC]*kT) [Compound 1074699]', 'YAP1 (% UTC)', '% UTC', 27),
  ('1074859 (antisense kG*kT*kA*dA*d[5mC]*dA*dT*dT*dG*dG*dT*dA*d[5mC]*kT*kA*kT) [Compound 1074859]', 'YAP1 (% UTC)', '% UTC', 16);

Now consider the entry below.
Query: // fetch Yap1 mRNA YAP1 (% UTC) for 1074123 (antisense kG*k[5mC]*kT*dG*d[5mC]*dG*dA*dG*dG*d[5mC]*dA*d[5mC]*dT*k[5mC]*kG*kG) [Compound 1074123]
Reply: 72

====

System: Yap1 mRNA
assay procedure: Dose-dependent inhibition of human Yap1 in A-431 cells (Example 8, 10,000 cells per well, RTS4814)
Format: cell-based
experimental conditions: 2000.00 nM; A-431 cells, 10,000 cells per well, free uptake, approximately 48 hours, RTS4814
Strand notation (5' to 3'): a small letter for the sugar, then the base; units joined by * are phosphorothioate-linked, units joined directly phosphodiester-linked; [ ] holds rarer units or linkages, { } end groups; capitals alone tell only the bases. k = constrained ethyl (cEt); [5mC] = 5-methylcytosine; d = 2'-deoxy (DNA)
List of Yap1 mRNA, % UTC values.

INSERT INTO assay_data (substance, readout, value_observed) VALUES
  ('1076288 (k[5mC]*kT*kT*dA*dT*dT*dT*dA*dG*d[5mC]*dA*dT*dA*kG*kT*kG; antisense) [compound 1076288]', 'Yap1 mRNA, % UTC', '4 % UTC'),
  ('1076494 (k[5mC]*kT*kA*dA*dT*dT*dG*dA*dA*dG*d[5mC]*dT*dG*kG*k[5mC]*kA; antisense) [compound 1076494]', 'Yap1 mRNA, % UTC', '2 % UTC');

Now consider the entry below.
Query: Which Yap1 mRNA, % UTC is listed for 1074451 (kG*kA*k[5mC]*dT*dA*dA*dT*dG*dA*dT*dA*dG*d[5mC]*kA*k[5mC]*kT; antisense) [compound 1074451] ?
Reply: 4 % UTC

====

List of YAP1 (% UTC) values.
Test system: Yap1 mRNA
assay procedure: Antisense inhibition of human Yap1 in A-431 cells by cEt gapmers, single dose (Example 2, RTS4814)
Assay type: cell-based
experimental conditions: Table 5; A-431 cells, 5,000 cells per well, free uptake, 2,000 nM modified oligonucleotide, approx. 48 hours; RTS4814; normalized to RIBOGREEN; Yap1 mRNA relative to untreated control cells
Strand notation (5' to 3'): a small letter for the sugar, then the base; units joined by * are phosphorothioate-linked, units joined directly phosphodiester-linked; [ ] holds rarer units or linkages, { } end groups; capitals alone tell only the bases. k = constrained ethyl (cEt); [5mC] = 5-methylcytosine; d = 2'-deoxy (DNA)
Your answer is read as % UTC, so omit the unit and give the number.

Examples with their reported YAP1 (% UTC) follow.
INSERT INTO assay_data (substance, readout, value_observed) VALUES
  ('716353 (kG*k[5mC]*kA*dT*d[5mC]*d[5mC]*d[5mC]*d[5mC]*d[5mC]*dG*d[5mC]*d[5mC]*d[5mC]*k[5mC]*kG*kG; antisense) [Compound 716353]', 'YAP1 (% UTC)', 98),
  ('716527 (antisense kA*kG*kT*dA*d[5mC]*dA*dG*dA*dG*dG*dG*d[5mC]*dA*kT*k[5mC]*kG) [Compound 716527]', 'YAP1 (% UTC)', 64);

Query: Which YAP1 (% UTC) is listed for 716479 (kG*kA*kA*d[5mC]*dA*dA*dT*d[5mC]*dT*dT*dG*dA*dA*kG*kG*k[5mC]; antisense) [Compound 716479] ?
Reply: 32

Query: Another substance to look at: 716542 (antisense k[5mC]*kT*kT*d[5mC]*d[5mC]*d[5mC]*dT*dG*dT*dG*dT*dT*d[5mC]*kA*kT*kT) [Compound 716542]
Reply: 45

Query: Another substance to look at: 716377 (kG*kG*kT*dA*dT*d[5mC]*dT*d[5mC]*dA*dA*dA*dA*dG*kA*kA*kG; antisense) [Compound 716377]
Reply: 76

Query: Another substance to look at: 716383 (kT*k[5mC]*kA*dT*d[5mC]*dA*dT*dA*dT*dT*d[5mC]*dT*dG*k[5mC]*kT*kG; antisense) [Compound 716383]
Reply: 98

Query: Another substance to look at: 716428 (kA*k[5mC]*kA*dG*dG*d[5mC]*dT*d[5mC]*dA*d[5mC]*dT*dT*d[5mC]*k[5mC]*k[5mC]*k[5mC]; antisense) [Compound 716428]
Reply: 10

Query: Another substance to look at: 716443 (kT*kT*kA*dT*dG*dT*dG*dA*d[5mC]*dT*dA*dA*dT*kG*kA*kT; antisense) [Compound 716443]
Reply: 73

Query: Another substance to look at: 716533 (antisense k[5mC]*kA*kA*dT*dT*d[5mC]*dA*dA*dG*dA*dA*dT*dA*k[5mC]*k[5mC]*k[5mC]) [Compound 716533]
Reply: 64

Query: Another substance to look at: 716437 (k[5mC]*k[5mC]*kA*dG*dT*dA*dA*dA*dT*d[5mC]*dA*dT*dG*kT*kT*kT; antisense) [Compound 716437]
Reply: 41

Query: Another substance to look at: 716431 (kA*kA*kT*dG*dA*dT*dT*dG*dG*dT*dG*dA*dA*k[5mC]*kA*kT; antisense) [Compound 716431]
Reply: 55

Query: Another substance to look at: 716494 (kA*kA*kG*dG*dG*d[5mC]*dT*dT*dA*dT*dT*d[5mC]*dT*kA*kG*kA; antisense) [Compound 716494]
Reply: 112
